The reported numbers originate from PubChem BioAssay.

# Experimental Protocol: glucagon-like peptide 1 release enhancers, primary assay, NCI-H716 cell line, NPC library (AID 1117341); note: reference of the scale not given here
# Condition Label: NCI-H716 cells, at 10 µM, stronger effect = higher value
Endpoint Name: GLP1 secretion stimulation (%)
Express your answer in %, writing the number without its unit.

Some molecules with recorded GLP1 secretion stimulation:
C[C@H]1O[C@@H](O[C@H]2CC[C@@]3(C)[C@H](CC[C@@H]4[C@@H]3C[C@@H](O)[C@]3(C)[C@@H](C5=CC(=O)OC5)CC[C@]43O)C2)C[C@H](O)[C@@H]1O[C@H]1C[C@H](O)[C@H](O[C@H]2C[C@H](O)[C@H](O[C@@H]3O[C@H](CO)[C@@H](O)[C@H](O)[C@H]3O)[C@@H](C)O2)[C@@H](C)O1 | 8
CN1CC(=O)NC1=N | 0.9

// below: GLP1 secretion stimulation requested for another molecule
Return the recorded GLP1 secretion stimulation value; entry: `CCOC(=O)c1ccc(NC(=O)CN2CCCCC2)cc1`
0.9
